# method_summary: ATG_DR4_LXR_CIS: Attagene CIS-FACTORIAL HepG2 Assay for human Liver X Receptor (LXR), DR4 submotif (AID 2282929)
# condition_context: HepG2 Attagene DR4 cis-reporter, mRNA transcription; actives raise or lower the signal
Calls of active or inactive are those of the source. How the source made its calls: active means hit-call score of the fitted dose curve at least 0.9, where 1 is the maximum; inactive means score below 0.9.
Classes to choose from: active, inactive

Record lookup: outcome of this test for `C=CC(=O)OCC(F)(F)C(F)(F)C(F)(F)C(F)(F)COC(=O)C=C` ?
active

Record request — test call for `C=CC(=O)OCC(F)(F)C(F)(F)C(F)(F)C(F)(F)C(F)(F)C(F)(F)C(F)(F)F`
inactive

Recorded test call requested for `C=C(C)C(=O)OCCC(F)(F)C(F)(F)C(F)(F)C(F)(F)C(F)(C(F)(F)F)C(F)(F)F`
inactive

Entry `FC(F)(I)C(F)(F)C(F)(F)C(F)(F)I` : call = ?
inactive

---

# Read-out: CD38, CD38 (gene 952)
# method_summary: BSK_SAg_CD38: BioMAP Diversity Plus: SAg Assay for CD38 Biomarker Activity (AID 2283087)
# condition_context: primary human HUVEC with PBMC; actives raise or lower the signal
Active and inactive are the calls of the source. The calls were made as follows: active = hit-call score of the fitted dose curve at least 0.9, where 1 is the maximum; inactive = score below 0.9.
Just give me one of these, please: active, inactive

Would you mind telling me which call this test gave `Cc1ccc(S(=O)(=O)OCC(F)(F)C(F)(F)C(F)(F)C(F)(F)C(F)(F)C(F)F)cc1` ?
inactive

Can you look up the reported call for `O=C(O)C(F)(F)C(F)(F)C(F)(F)C(F)(F)C(F)(F)C(F)(F)C(F)(F)C(F)(F)C(F)(F)C(F)(F)C(F)(F)C(F)(F)F` for me?
inactive

Test call for this compound, please: `FC(F)(F)C(F)(F)CNCC(F)(F)C(F)(F)F`
inactive

Could you please tell me the result logged for `C=CC(F)(F)C(F)(F)C(F)(F)C(F)(F)C(F)(F)C(F)(F)C(F)(F)C(F)(F)F` in this assay?
inactive

Per the assay record, what outcome was assigned to `O=C(CC(=O)C(F)(F)C(F)(F)F)C(F)(F)F` ?
inactive

Name the outcome recorded for CCCCC(CC)COP(=O)(O)OCC(CC)CCCC (stereo unspecified) in the assay.
inactive

Identify the outcome logged in this assay for the compound shown: O=C(O)C(F)(OC(F)(F)C(F)(OC(F)(F)C(F)(OC(F)(F)C(F)(F)C(F)(F)F)C(F)(F)F)C(F)(F)F)C(F)(F)F (stereo unspecified)
inactive

For this compound, state the assay outcome: `CCc1c(Br)c(Br)c(Br)c(Br)c1Br`
active

Could you check what this test reported for `CCc1ccc(C(c2ccc(CC)cc2)C(Cl)Cl)cc1` ?
active

Name the outcome recorded for `CCCCCCCCCCCCCCCC[N+](C)(C)Cc1ccccc1` in the assay.
active

// outcome(item) with item = `CS(C)(=O)=O`
inactive

---

# Read-out: Vascular cell adhesion molecule 1 (VCAM1), VCAM1 (gene 7412)
# method_summary: BSK_MyoF_VCAM1: BioMAP Diversity Plus: MyoF Assay for Vascular cell adhesion molecule 1 (VCAM1) Biomarker Activity (AID 2284231)
# condition_context: primary human lung fibroblasts
Calls of active or inactive are those of the source. How the source made its calls: active means hit-call score of the fitted dose curve at least 0.9, where 1 is the maximum; inactive means score below 0.9.
experimental_endpoint: outcome

// worked examples, outcome included
OCCCC(F)(F)C(F)(F)C(F)(F)F | inactive
N=C(N)C(F)(F)C(F)(F)C(F)(F)C(F)(F)C(F)(F)C(F)(F)C(F)(F)F | inactive
O[Si](c1ccccc1)(c1ccccc1)c1ccccc1 | inactive
FC(F)(F)C(F)(F)C(F)(F)C(F)(F)C(F)(F)C(F)(F)CC1CO1 (configuration not stated) | inactive
O=S(=O)(OCCOC(F)(F)F)C(F)(F)F | inactive

Here's the next entry for you.
Given `CCO[Si](CCC(F)(F)C(F)(F)C(F)(F)C(F)(F)C(F)(F)C(F)(F)F)(OCC)OCC` , state its recorded outcome.
inactive
